# Population Hoechst High Intensity Objects (%) per entry
system: U2OS; experiment: Multiplex assay against U2OS; assay type: toxicity, cell-based; conditions: human, 48 h, 1 µM, compound concentration 1 uM
Reply with just the number (in %).

Worked examples follow.
>>> assay_value("N#Cc1cc(F)cc(-c2nc(-c3ccc(F)cn3)no2)c1")
1
>>> assay_value("C=C(C)[C@H]1CN[C@H](C(=O)O)[C@H]1CC(=O)O")
0
>>> assay_value("CNC[C@H](O)c1ccc(O)c(O)c1 [EPINEPHRINE]")
0
>>> assay_value("CN[C@@H](C)C(=O)N[C@H](C(=O)N1CCC[C@H]1C(=O)Nc1snnc1-c1ccccc1)C1CCCCC1")
8

Case O=S(=O)(c1ccccc1)c1cnc2c(N3CCNCC3)cccc2c1 [INTEPIRDINE] , U2OS, Population Hoechst High Intensity Objects (%) recorded as 3

* * *

test system: Fibroblast; assay: Multiplex assay against human fibroblast; assay type: toxicity, cell-based; conditions: 48 h, 10 µM, compound concentration 10 uM
Entries and their Population Normal (%)
Report the figure in % without appending any unit label.

Solved entries:
>>> assay_value("CC(F)(F)CN1CCOc2c(nn(-c3ccccc3Cl)c2-c2ccc(Cl)cc2)C1=O")
98
>>> assay_value("O=c1cccc2n1C[C@@H]1CNC[C@H]2C1")
100
>>> assay_value("CC[C@H](Nc1ncnc2[nH]cnc12)c1nc2cccc(F)c2c(=O)n1-c1ccccc1")
100
>>> assay_value("c1ccc2nc(N3CCNCC3)ccc2c1")
100
>>> assay_value("CC(C)Oc1ccc(F)c(-c2cnc(N)c(C(=O)Nc3cnccc3N3CCC[C@@H](C(=O)O)C3)n2)c1")
100

Value (Population Normal (%), Fibroblast) for record S=c1[nH]nc(-c2cccs2)n1-c1ccccc1 = 100

So the reported Population Normal (%) for CCCCC(=O)N(Cc1ccc(-c2ccccc2-c2nnn[nH]2)cc1)[C@H](C(=O)O)C(C)C , on Fibroblast, turned out to be 95

Field Population Normal (%) (Fibroblast), entry Cn1cnc(-c2cnc(O[C@H]3CCN(C(=O)Cc4ccc(OC(F)(F)F)cc4)C[C@H]3F)c(C(N)=O)c2)c1 : 100

CC(C)c1ccc(/C=N/NC(=O)c2ccc(O)cc2)cc1 tested on Fibroblast gave Population Normal (%): 100

Tested on Fibroblast: O=C1NCc2ccc3c(-c4cccc(Cl)c4)c[nH]c3c21 . Observed Population Normal (%): 100

Reported Population Normal (%) (Fibroblast) for entry CSCC[C@H](NC=O)C(=O)N[C@@H](CC(C)C)C(=O)N[C@@H](Cc1ccccc1)C(=O)O is 70

* * *

test system: U2OS; assay: Multiplex assay against U2OS; assay type: toxicity, cell-based; conditions: human, 48 h, 10 µM, compound concentration 10 uM
Population Tubulin-Different-Phenotype (%): recorded values
Form entry: value (%) — number only.

>>> assay_value("Cc1ccc(C(C)(O)c2nc3ccccc3s2)c(C)c1 (centres undefined)")
4

We next turn to a different compound, shown below.
The value of Population Tubulin-Different-Phenotype (%) measured for the compound C[C@@H]1C[C@H]2[C@@H]3CCC4=CC(=O)C=C[C@]4(C)[C@@]3(F)[C@@H](O)C[C@]2(C)[C@@]1(O)C(=O)CO [DEXAMETHASONE] turned out to be 1

* * *

test system: U2OS; experiment: Multiplex assay against U2OS; type: toxicity, cell-based; details: human, 24 h, 1 µM, compound concentration 1 uM
Listing: Population Mitochondria Different-Phenotype (%) of selected compounds
Lab book: enter the figure in %, no units written.

Completed entries (count: 2):
>>> assay_value("O=C(O)Cc1ccccc1Nc1c(Cl)cccc1Cl")
2
>>> assay_value("CC(C)c1noc(N2CCC(COc3ccc(-c4ccc(S(C)(=O)=O)cc4)nc3)CC2)n1")
2

Measured Population Mitochondria Different-Phenotype (%) of CSc1nc(NC2CCCC2)c([N+](=O)[O-])c(NC2CCCC2)n1 : 1

Noted for CN1CCN2c3ncccc3Cc3ccccc3C2C1 (stereo unspecified) : its Population Mitochondria Different-Phenotype (%) reads 3

Entry under test: O=C(CCCc1ccccc1)Nc1nc2ccccc2c(=O)s1 . Its Population Mitochondria Different-Phenotype (%) was 2

Measured Population Mitochondria Different-Phenotype (%) of COCCn1c(C)c(C)s/c1=N\C(=O)C1C(C)(C)C1(C)C : 3

* * *

test system: U2OS; test: Multiplex assay against U2OS; type: toxicity, cell-based; settings: human, 24 h, 1 µM, compound concentration 1 uM
Outcome Measure: Population Normal (%)
Your answer is read as %, so omit the unit and give the number.

Answered examples (8):
>>> assay_value("CCN1CCN(Cc2ccc(Nc3ncc(F)c(-c4cc(F)c5nc(C)n(C(C)C)c5c4)n3)nc2)CC1.CS(=O)(=O)O")
100
>>> assay_value("Cl.Cl.N#Cc1ccc(O[C@@H]2c3ccccc3C[C@H]2N2CCC[C@@H](N)C2)c(Cl)c1")
100
>>> assay_value("C[C@@H]1C[C@H]2[C@@H]3CCC4=CC(=O)C=C[C@]4(C)[C@@]3(F)[C@@H](O)C[C@]2(C)[C@@]1(O)C(=O)CO [DEXAMETHASONE]")
97
>>> assay_value("CC(C)Oc1ccc(F)c(-c2cnc(N)c(C(=O)Nc3cnccc3N3CCC[C@@H](C(=O)O)C3)n2)c1")
100
>>> assay_value("CC/C(=C(\\c1ccc(O)cc1)c1ccc(OCCN(C)C)cc1)c1ccccc1 [AFIMOXIFENE]")
100
>>> assay_value("O=c1cccc2n1C[C@@H]1CNC[C@H]2C1 [CYTISINICLINE]")
100
>>> assay_value("COCCn1c(C)c(C)s/c1=N\\C(=O)C1C(C)(C)C1(C)C")
99
>>> assay_value("COc1cc2ncnc(Nc3ccc(Oc4ccccc4)cc3C)c2cc1OC.Cl")
100

// Population Normal (%) lookup, compound = O=C(Nc1ccccc1Cl)c1cnc2ccc(C3CCNCC3)cn12.O=C(O)C(=O)O , result: 100

* * *

test system: U2OS; experiment: Multiplex assay against U2OS; type: toxicity, cell-based; settings: human, 12 h, 1 µM, compound concentration 1 uM
Outcome Measure: Population Membrane Permeable-Phenotype (%)
# value in %; strip the unit string

Here are 4 molecules together with their reported answers.
>>> assay_value("CC(C)(C)c1ccc(S(=O)(=O)Nc2ccc(Cl)cc2C(=O)c2cc[n+]([O-])cc2)cc1")
8
>>> assay_value("COc1c(C)cc(NC(=O)c2nn(Cc3ccc(F)cc3)c3c2CN(C(=O)c2ccc[nH]2)C[C@]3(C)C(N)=O)cc1C")
8
>>> assay_value("CC(F)(F)CN1CCOc2c(nn(-c3ccccc3Cl)c2-c2ccc(Cl)cc2)C1=O")
3
>>> assay_value("CC/C(=C(\\c1ccc(O)cc1)c1ccc(OCCN(C)C)cc1)c1ccccc1")
4.07

Now for the molecule whose Population Membrane Permeable-Phenotype (%) we want.
Per the records, this molecule ( CSc1nc(NC2CCCC2)c([N+](=O)[O-])c(NC2CCCC2)n1 ) has Population Membrane Permeable-Phenotype (%) equal to 4

* * *

tested on: U2OS; experiment: Multiplex assay against U2OS; assay type: toxicity, cell-based; settings: human, 48 h, 10 µM, compound concentration 10 uM
Below, each entry is listed with its recorded Population Normal (%).
Give the value in % but do not write % after it.

>>> assay_value("C[C@@H]1C[C@H]2[C@@H]3CCC4=CC(=O)C=C[C@]4(C)[C@@]3(F)[C@@H](O)C[C@]2(C)[C@@]1(O)C(=O)CO")
97
>>> assay_value("CC(C)Oc1ccc(F)c(-c2cnc(N)c(C(=O)Nc3cnccc3N3CCC[C@@H](C(=O)O)C3)n2)c1")
100
>>> assay_value("C=C(C)[C@H]1CN[C@H](C(=O)O)[C@H]1CC(=O)O")
100

U2OS data for S=c1[nH]nc(-c2cccs2)n1-c1ccccc1 ; its Population Normal (%): 100

Measured Population Normal (%) for this entry CN1CCN2c3ncccc3Cc3ccccc3C2C1 (stereo not given) on U2OS: 97

Entry COCCCN1CCC(NC(=O)c2cc(Cl)c(N)c3c2OCC3)CC1 [PRUCALOPRIDE] , U2OS data, Population Normal (%) value: 98

* * *

system: Fibroblast; experiment: Multiplex assay against human fibroblast; type: toxicity, cell-based; settings: 24 h, 10 µM, compound concentration 10 uM
Outcome Measure: Population Pyknosed Nuclei (%)

Some entries whose results are on file:
>>> assay_value("CCn1c(-c2nc3cc(C(=O)N4CCCC(N)C4)ccc3n2C)cc2ccccc21.Cl (centres undefined)")
"23% [middle of 4 runs]"
>>> assay_value("O=C(O)c1cc2ccccc2c(Cc2c(O)c(C(=O)O)cc3ccccc23)c1O")
"13%"
>>> assay_value("Cc1cc(O)c(-c2ccc([C@@H](C)CN(C)C)cc2)c2c1[nH]c(=O)c1sccc12")
"34.66% [middle of 4 runs]"

Now for the compound whose Population Pyknosed Nuclei (%) we want.
In plain terms, CCc1nn2c(C)cc(C)nc2c1Cc1ccc(-c2nnc(C3CCNCC3)o2)cc1 has a documented Population Pyknosed Nuclei (%) of 17%
